assay.method.text: protein stability index of a GFP-peptide fusion (GPS, HEK-293T) (PSI 1-6); higher = more stable;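 note: 24-mer peptide tiles fused after GFP, lentivirally expressed, FACS-sorted into six equal bins by GFP/DsRed ratio, decoded by Illumina sequencing, PSI is the read-weighted mean bin number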
condition.info: treatment: MLN4924 1 uM, 8 h; c terminus: a fixed tail appended
Threshold check on protein stability index: at or above 4 gives class 1, strictly below gives class 0.

> print(dat)
                 biopolymer.sequence  classification
1     RIFRLPNNWYYISPRLTFQCLEDL [SLA]         class 0
2  NICENTEGAIAVHCKAGLGRTGTL [CDC14A]         class 0
3  ERGTPGLPGPKGDDGKLGATGPMG [SCARA5]         class 1
4    SGQYRELGGAIDFGAAYVLEQASS [ATL3]         class 0
5    AAAALFGGKKDKARYIDTHNRVSK [PLK2]         class 0

Task: Confirm if protein stability index reported for the sequence ATKPSHWCSVAYWEHRTRVGRLYA [SMAD6] is 4 or above.
Output: class 0

Task: Say whether MGQTALAGGSSSTPTPQALYPDLS [SPSB2] shows protein stability index of 4 or more.
Output: class 1

Task: // inclusive: protein stability index at least 4? input: AAFPNLANLSRTQLLHLGLTQGLI [KLHDC10]
Output: class 0

Task: Is protein stability index at least 4? Consider AFEPEALGNLVEGLDFHRFYFENL [CAMK2A]
Output: class 0

Task: I'd appreciate it if you could say whether PLGVDESLFSYGLRESIASYLSLT [SLA] has protein stability index at least equal to 4.
Output: class 0
